Please respond with reported koff for every item in the list.
target: T1, Purified recombinant human CD26 (rhDipeptidyl peptidase IV), R&D Systems CAT #1180-SE (human, UniProt P27487 29-766); test: SPR (Biacore), Fab
T1 construct: Bought recombinant protein; also called hu-CD26; soluble human CD26
T1 sequence (P27487 29-766 limits assumed): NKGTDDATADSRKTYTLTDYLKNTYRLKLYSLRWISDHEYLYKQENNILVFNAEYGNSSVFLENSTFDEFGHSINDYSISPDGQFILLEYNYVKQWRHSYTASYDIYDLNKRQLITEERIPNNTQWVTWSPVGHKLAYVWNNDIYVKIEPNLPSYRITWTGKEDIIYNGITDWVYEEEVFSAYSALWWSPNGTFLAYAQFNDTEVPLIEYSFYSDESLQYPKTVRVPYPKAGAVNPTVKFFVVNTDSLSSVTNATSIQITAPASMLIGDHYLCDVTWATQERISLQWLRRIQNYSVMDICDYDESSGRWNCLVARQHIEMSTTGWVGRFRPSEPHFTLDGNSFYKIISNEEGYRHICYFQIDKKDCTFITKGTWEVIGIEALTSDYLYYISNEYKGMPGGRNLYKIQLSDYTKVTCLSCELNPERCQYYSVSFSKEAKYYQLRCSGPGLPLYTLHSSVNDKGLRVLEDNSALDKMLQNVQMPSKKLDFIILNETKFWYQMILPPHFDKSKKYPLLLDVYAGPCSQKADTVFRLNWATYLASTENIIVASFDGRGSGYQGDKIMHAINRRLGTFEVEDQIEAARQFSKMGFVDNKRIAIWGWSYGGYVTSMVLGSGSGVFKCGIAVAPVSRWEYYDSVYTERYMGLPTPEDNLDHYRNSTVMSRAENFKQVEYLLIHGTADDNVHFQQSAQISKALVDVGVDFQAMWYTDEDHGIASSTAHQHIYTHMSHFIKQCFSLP
Output spec: scalar in s⁻¹, unitless text.

What koff value was documented for this binder, Fab comprising X377 VL and CM03 VH (Fab, V domains shown, Fab made in E. coli; also called X377 Fab) VH: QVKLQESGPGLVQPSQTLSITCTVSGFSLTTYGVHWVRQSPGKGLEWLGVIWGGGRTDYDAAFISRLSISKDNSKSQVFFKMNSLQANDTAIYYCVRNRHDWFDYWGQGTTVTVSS VL: EIELTQSPSSLSVSLGDRVTISCSASQDIRNNLNWYQQKPGQAPRLLIYYSSNLQTGVPARFSGSGSGTDFTLTISRLEPEDVAAYYCQQSIKLPFTFGSGTKVEIK ?
0.000596

Can you look up the measured koff of Fab comprising X376 VL and CM03 VH (Fab, V domains shown, Fab made in E. coli) VH: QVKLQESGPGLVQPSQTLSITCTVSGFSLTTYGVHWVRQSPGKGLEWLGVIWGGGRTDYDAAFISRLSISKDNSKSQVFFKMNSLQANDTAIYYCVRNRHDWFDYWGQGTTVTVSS VL: DILMTQSPSSLSASPGDRVTISCRASQDIRNNLNWYQQKPGQAPRLLIYYSSNLHSGVPDRFSGSGSGTDFTLTISRLEPEDFAAYYCQQSIKLPLTFGSGTKVEIK for me?
0.000596

Can you share its koff? I mean this binder: Fab comprising X381 VL and CM03 VH (Fab, V domains shown, Fab made in E. coli) VH: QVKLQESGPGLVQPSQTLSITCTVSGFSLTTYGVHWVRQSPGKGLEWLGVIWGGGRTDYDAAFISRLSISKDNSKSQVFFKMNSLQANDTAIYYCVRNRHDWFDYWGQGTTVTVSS VL: EIELTQSPSSLSVSPGDRVTISCSASQGIRNSLNWYQQKPGQAPRLLIYYSSNLHTGVPARFSGSGSGTDFTLTISRLQAEDFATYYCQQSIKLPLTFGSGTKVEIK
0.000601

Dear colleague, I am looking for the recorded koff of the following binder: Fab comprising X379 VL and CM03 VH (Fab, V domains shown, Fab made in E. coli) VH: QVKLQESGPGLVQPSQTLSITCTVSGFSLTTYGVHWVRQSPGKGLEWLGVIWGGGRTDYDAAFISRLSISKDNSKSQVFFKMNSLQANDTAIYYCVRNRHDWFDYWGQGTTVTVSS VL: DILLTQSPSSLSATPGERATITCRASQGIRNNLNWYQQKPGQAPRLLIYYSSNLQSGVPSRFSGSGSGTDFTLTISRLQPEDVAAYYCQQSIKLPFTFGSGTKVEIK
0.00067

For Fab comprising X378 VL and CM03 VH (Fab, V domains shown, Fab made in E. coli) VH: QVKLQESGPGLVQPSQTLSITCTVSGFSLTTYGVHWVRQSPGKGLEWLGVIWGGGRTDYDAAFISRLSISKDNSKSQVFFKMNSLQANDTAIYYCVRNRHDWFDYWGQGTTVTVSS VL: DIEMTQSPSSLSASAGERVTISCRASQGIRNSLNWYQQKPGQAPRLLIYYSSNLQTGVPSRFSGSGSGTDFTLTISRLQAEDFATYYCQQSNKLPFTFGSGTKVEIK , what is its reported koff?
0.00083

Any idea what its koff is? The binder is Fab comprising X380 VL and CM03 VH (Fab, V domains shown, Fab made in E. coli) VH: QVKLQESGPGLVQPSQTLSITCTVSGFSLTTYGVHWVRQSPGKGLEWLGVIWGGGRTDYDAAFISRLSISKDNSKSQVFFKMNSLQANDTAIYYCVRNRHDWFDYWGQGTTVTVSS VL: EIEMTQSPSSLSVSAGERATISCSASQDIRNSLNWYQQKPGQAPRLLIYYSSNLHTGVPARFSGSGSGTDFTLTISRLEPEDVAIYYCQQSNKLPLTFGSGTKVEIK
0.000687
